assay.summary: Solubility in gastric juice or intestinal juice model fluid (precipitation method using DMSO)
Type: physicochemical
test.parameters: pH 1.2, simulated gastric fluid, kinetic from dmso stock, 1st fluid for Disintegration Test of Japanese Pharmacopoeia (pH: 1.2), room temperature, read-out: Solubility (μg/mL) 1st fluid
Label rule, in plain words: solubility at 24 h of 8 µg/mL and up is TRUE, under 8 µg/mL is FALSE.

[[record]]
compound = "COc1ccc(-c2nc(-c3ccc(OCc4ccc(C(F)(F)F)cn4)cc3OC)c[nH]2)cn1"
qualitative_label = "TRUE"

[[record]]
compound = "COc1cc(OCc2cnccn2)ccc1-c1nc(-c2ccc(Cl)nc2)[nH]c1Cl"
qualitative_label = "FALSE"

[[record]]
compound = "COc1cc(OCc2ccc(C(F)(F)F)cn2)ccc1-c1c(C)nc(-c2ccc(Cl)nc2)n1CC1CC1"
qualitative_label = "TRUE"

[[record]]
compound = "Fc1ccc(-c2ncc(-c3ccc(OCc4ncc(C(F)(F)F)cc4F)cc3F)[nH]2)cn1"
qualitative_label = "TRUE"

[[record]]
compound = "COc1cc(OCc2ccc(C(F)(F)F)cn2)ccc1-c1nc(-c2ccc(Cl)nc2)n(CC2CC2)c1C"
qualitative_label = "TRUE"

[[record]]
compound = "COc1cc(-c2[nH]c(-c3ccc(F)nc3)nc2Cl)ccc1OCc1ncc(C(F)(F)F)cc1F"
qualitative_label = "FALSE"

[[record]]
compound = "COCCOc1cc(OCc2ccc(C(F)(F)F)cn2)ccc1-c1nc(-c2ccc(Cl)nc2)[nH]c1Cl"
qualitative_label = "FALSE"

[[record]]
compound = "COc1cc(OCc2ncc(C(F)(F)F)cc2F)ccc1-c1cnc(-c2ccc(F)nc2)[nH]1"
qualitative_label = "FALSE"

[[record]]
compound = "COc1cc(-c2nc(-c3ccc(Cl)cn3)[nH]c2C)ccc1OCc1ccc(C(F)(F)F)cn1"
qualitative_label = "FALSE"

[[record]]
compound = "COc1cc(-c2[nH]c(C3C4CC5CC(C4)CC3C5)nc2Cl)ccc1OCc1ccc(C(F)(F)F)cn1 (stereo not shown)"
qualitative_label = "TRUE"

[[record]]
compound = "COc1cc(OCc2ccc(C(F)(F)F)cn2)ccc1-c1c[nH]c(-c2ccc(O)nc2)n1"
qualitative_label = "TRUE"

[[record]]
compound = "COc1cc(OCc2ccc(C(F)(F)F)cn2)ccc1-c1c[nH]c(C2CCCCC2)n1"
qualitative_label = "TRUE"

[[record]]
compound = "COc1cc(OCc2cncc(C(F)(F)F)c2)ccc1-c1[nH]c(-c2ccc(F)nc2)nc1Br"
qualitative_label = "TRUE"

[[record]]
compound = "COc1cc(-c2cnc(C3CCC(F)(F)CC3)[nH]2)ccc1O"
qualitative_label = "TRUE"

[[record]]
compound = "COc1cc(OCc2ccc(Br)cc2F)ccc1-c1c[nH]c(-c2ccc(F)nc2)n1"
qualitative_label = "FALSE"


---

assay.summary: Solubility in gastric juice or intestinal juice model fluid (precipitation method using DMSO)
Type: physicochemical
test.parameters: pH 1.2, simulated gastric fluid, kinetic from dmso stock, 1st fluid for Disintegration Test of Japanese Pharmacopoeia (pH: 1.2), room temperature, read-out: Solubility (μg/mL) 1st fluid
List of solubility at 24 h values.
measure.name: solubility at 24 h (µg/mL)

[[record]]
molecule = "COc1cc(-c2[nH]c(C3CCC(F)(F)CC3)nc2Cl)ccc1OCc1ccc(C(F)(F)F)cn1 [Example 209]"
unit_symbol = "µg/mL"
limit_qualifier = "="
experimental_result = 99.4

[[record]]
molecule = "COc1cc(OCc2ncc(Cl)cc2Br)ccc1-c1[nH]c(-c2ccc(F)nc2)nc1Cl [Example 265]"
unit_symbol = "µg/mL"
limit_qualifier = "="
experimental_result = 2.2

[[record]]
molecule = "COc1cc(OCc2ccncc2C(F)(F)F)ccc1-c1cnc(-c2ccc(F)nc2)[nH]1 [Example 136]"
unit_symbol = "µg/mL"
limit_qualifier = ">"
experimental_result = 89

[[record]]
molecule = "COc1cc(OCc2cncc(C(F)(F)F)c2)ccc1-c1cnc(-c2ccc(Cl)nc2)[nH]1 [Example 106]"
unit_symbol = "µg/mL"
limit_qualifier = "="
experimental_result = 31.2

